Reported pIC50 is given for each of the following sequences.
Test system: HT29 colon cancer cells
PROCEDURE_SUMMARY: Toxicity testing on cancer cell lines (MTT)
Type: cell-based
STATED_CONDITIONS: 72 hours, n=4, read-out: Cell Line IC50, HT29
pIC50: −log10 of the molar value. Where no end group is shown, it is not given here.

MONOMER_SEQUENCE: WLRRIKAWLRR [Peptide 3]
pIC50: 4.68

MONOMER_SEQUENCE: WLRRIKAWLRRALNRQLGVAA [Peptide 4]
pIC50: 4.93

MONOMER_SEQUENCE: WLRRIKAHRRIKALARQLGVAA [Peptide 2]
pIC50: 4.58

###

Reported IC50 is given for each of the following sequences.
Tested on: SF 539 central nervous system cancer cells
PROCEDURE_SUMMARY: Toxicity testing on cancer cell lines (MTT)
Type: cell-based
STATED_CONDITIONS: 72 hours, n=4, read-out: Cell Line IC50, SF 539
Where no end group is shown, it is not given here.

MONOMER_SEQUENCE: WLRRIKAHRRIKALARQLGVAA [Peptide 2]
RESULT_UNITS: µM
IC50: 26
//
MONOMER_SEQUENCE: WLRRIKAWLRR [Peptide 3]
RESULT_UNITS: µM
IC50: 22
//
MONOMER_SEQUENCE: WLRRIKAWLRRALNRQLGVAA [Peptide 4]
RESULT_UNITS: µM
IC50: 10
